# TARGET_OR_TEST_SYSTEM: Corticotropin-releasing factor receptor 2/Corticotropin-releasing factor-binding protein (Homo sapiens, UniProt P24387+Q13324)
# Sequence (Q13324 whole entry): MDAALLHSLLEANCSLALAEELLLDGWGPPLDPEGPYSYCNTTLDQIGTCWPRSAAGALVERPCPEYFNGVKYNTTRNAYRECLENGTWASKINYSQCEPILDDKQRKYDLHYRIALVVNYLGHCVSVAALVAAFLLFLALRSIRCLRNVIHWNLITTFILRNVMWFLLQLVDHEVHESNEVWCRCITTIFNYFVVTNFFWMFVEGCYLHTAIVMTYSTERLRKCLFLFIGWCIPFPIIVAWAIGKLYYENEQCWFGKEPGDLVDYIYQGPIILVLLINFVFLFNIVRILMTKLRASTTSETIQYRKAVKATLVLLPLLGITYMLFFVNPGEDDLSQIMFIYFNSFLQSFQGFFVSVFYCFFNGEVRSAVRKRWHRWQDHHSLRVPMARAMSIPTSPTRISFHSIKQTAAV
# Sequence (P24387 whole entry): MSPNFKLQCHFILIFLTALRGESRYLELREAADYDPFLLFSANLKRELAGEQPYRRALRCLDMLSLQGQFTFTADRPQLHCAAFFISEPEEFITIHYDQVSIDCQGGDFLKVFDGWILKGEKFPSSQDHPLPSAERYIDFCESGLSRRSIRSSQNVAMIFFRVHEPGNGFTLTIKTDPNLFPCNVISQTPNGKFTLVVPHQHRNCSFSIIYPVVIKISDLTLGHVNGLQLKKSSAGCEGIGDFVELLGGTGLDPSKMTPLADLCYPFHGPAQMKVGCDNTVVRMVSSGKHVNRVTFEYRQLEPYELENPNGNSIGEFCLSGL
# PROTOCOL_DESCRIPTION: Dose Response confirmation of uHTS hits for small molecule antagonists of the CRF-binding protein and CRF-R2 receptor complex.
# Type: functional
# EXPERIMENTAL_SETUP: read-out: IC50_Mean
Activity calls are given as the source filed them.
Outcome codes: YES (active), NO (inactive)

>>> cat("CC(C)NC(=S)N(CCc1ccncc1)C(C)C")
"NO"
>>> cat("COc1ccc(Cc2nnc(NC(=O)Nc3ccc(C)cc3)s2)cc1OC")
"NO"
>>> cat("Cn1cc(CN2CCCC(C(=O)Nc3cccc(-c4cc5ccccc5[nH]4)c3)C2)cn1 (stereo unspecified)")
"NO"
>>> cat("CC1(C2CC2)NC(=O)N(CC(=O)Nc2ccccc2F)C1=O (stereo unspecified)")
"NO"
>>> cat("O=C(Nc1ccccc1)c1ccccc1OCc1cccc([N+](=O)[O-])c1")
"NO"
>>> cat("CC12CCC(C/C1=N\\OC(=O)c1c(F)cccc1F)C2(C)C (stereo unspecified)")
"NO"
>>> cat("COc1cc(C=C2C(=O)c3ccccc3C2=O)cc(OC)c1OC")
"YES"
>>> cat("CCCCN(C(=O)CSc1nnc[nH]1)c1c(N)n(Cc2ccccc2)c(=O)[nH]c1=O")
"NO"
>>> cat("O=C(NCc1cn2ccccc2n1)C1CCC(=O)N(Cc2ccccc2F)C1 (stereo unspecified)")
"NO"
>>> cat("CC(NC(=O)CC(c1ccccc1)c1cc(Cl)ccc1O)c1ccccc1 (stereo unspecified)")
"YES"
>>> cat("Cc1cc(C(=O)Nc2ccc3c(c2)OCCO3)nn1C(C)(C)C")
"NO"

----------
# TARGET_OR_TEST_SYSTEM: Replicative DNA helicase DnaB (Mycobacterium tuberculosis, UniProt P9WMR3)
# PROTOCOL_DESCRIPTION: DnaB intein splicing inhibitors, dose response, biochemical, cell-free fluorescence (AID 449749)
# Format: functional
Active and inactive are the calls of the source.
Outcome codes: 1.0 = active, 0.0 = inactive

>>> cat("CCOc1ccc(C(c2c(C)n[nH]c2O)c2c(C)n[nH]c2O)cc1OCC")
1.0
>>> cat("CC(C)(C)c1[nH]nc2c1C(c1ccoc1)C(C#N)=C(N)O2 (centres undefined)")
1.0
>>> cat("Nc1ccc(O)c2ccccc12")
1.0
>>> cat("CC(=O)Nc1ccc(NC(=O)CSc2ncc(C(=O)Nc3ccc(F)cc3)c(=O)n2C)cc1")
0.0
>>> cat("COc1cc(/C=C2/C(=O)N(c3ccccc3)N=C2C)ccc1OS(=O)(=O)c1ccccc1")
1.0
>>> cat("O=C(Oc1ccc(Br)cc1C(=S)N1CCCCC1)c1cc([N+](=O)[O-])cc([N+](=O)[O-])c1")
1.0
>>> cat("O=C1/C(=C/c2ccccc2F)SC(=S)N1CC(=O)N1CCCCC1c1cccnc1 (centres undefined)")
1.0
>>> cat("CCCCCc1cc(=O)oc2c(C(CCN3CCCC(C)C3)c3ccc(OC)cc3)c(OC)cc(OC)c12 (centres undefined)")
1.0
>>> cat("CCOC(=O)c1ccc(Nc2cc3ccccc3c(O)n2)cc1")
1.0
>>> cat("Cc1cccc(Cn2nnc3c2C(=O)c2ccccc2C3=O)c1")
1.0
>>> cat("CCCc1[nH][nH]c(=O)c1C(c1cccc(Cl)c1)C(C#N)C#N (centres undefined)")
0.0
>>> cat("CCN(C(=O)CSc1ncccc1C(=O)Oc1cccc([N+](=O)[O-])c1)c1cccc(C)c1")
1.0
>>> cat("NS(=O)(=O)c1ccc(/N=C/c2c(O)oc3ccccc3c2=O)cc1")
0.0
>>> cat("CCC(=O)Oc1ccc(C(=O)Nc2cccc(C(=O)c3ccccc3)c2)cc1")
1.0
>>> cat("O=Cc1sc(=O)n(Cc2cccc(C(=O)O)c2)c1Cl")
1.0
>>> cat("CC(C)c1nnc(NC(=O)c2nc(S(=O)(=O)Cc3ccc(F)cc3)ncc2Cl)s1")
1.0
>>> cat("Cc1cc2c(N)cccc2nn1")
0.0
>>> cat("CC1=NNC(=O)C1C(c1ccccc1)C(C#N)C#N (centres undefined)")
1.0
>>> cat("CCOC(=O)N/N=C\\c1ccc(OC(=O)c2ccco2)cc1")
1.0
>>> cat("Cc1cc(C(=O)CN2C(=O)c3ccccc3C2=O)c(C)n1C1CC1")
0.0
>>> cat("Cc1ccc(-n2nnnc2CCl)cc1")
1.0
>>> cat("O=C(OCn1ncc(Cl)c(Cl)c1=O)c1cccc(C(F)(F)F)c1")
1.0
>>> cat("COc1ccc(NC2=C(NCCO)C(=O)c3ccccc3C2=O)cc1")
1.0

----------
# TARGET_OR_TEST_SYSTEM: Voltage-gated N-type calcium channel alpha-1B subunit/Amyloid beta A4 precursor protein-binding family A member 1 (Homo sapiens, UniProt Q00975+Q02410)
# Sequence (Q00975 whole entry): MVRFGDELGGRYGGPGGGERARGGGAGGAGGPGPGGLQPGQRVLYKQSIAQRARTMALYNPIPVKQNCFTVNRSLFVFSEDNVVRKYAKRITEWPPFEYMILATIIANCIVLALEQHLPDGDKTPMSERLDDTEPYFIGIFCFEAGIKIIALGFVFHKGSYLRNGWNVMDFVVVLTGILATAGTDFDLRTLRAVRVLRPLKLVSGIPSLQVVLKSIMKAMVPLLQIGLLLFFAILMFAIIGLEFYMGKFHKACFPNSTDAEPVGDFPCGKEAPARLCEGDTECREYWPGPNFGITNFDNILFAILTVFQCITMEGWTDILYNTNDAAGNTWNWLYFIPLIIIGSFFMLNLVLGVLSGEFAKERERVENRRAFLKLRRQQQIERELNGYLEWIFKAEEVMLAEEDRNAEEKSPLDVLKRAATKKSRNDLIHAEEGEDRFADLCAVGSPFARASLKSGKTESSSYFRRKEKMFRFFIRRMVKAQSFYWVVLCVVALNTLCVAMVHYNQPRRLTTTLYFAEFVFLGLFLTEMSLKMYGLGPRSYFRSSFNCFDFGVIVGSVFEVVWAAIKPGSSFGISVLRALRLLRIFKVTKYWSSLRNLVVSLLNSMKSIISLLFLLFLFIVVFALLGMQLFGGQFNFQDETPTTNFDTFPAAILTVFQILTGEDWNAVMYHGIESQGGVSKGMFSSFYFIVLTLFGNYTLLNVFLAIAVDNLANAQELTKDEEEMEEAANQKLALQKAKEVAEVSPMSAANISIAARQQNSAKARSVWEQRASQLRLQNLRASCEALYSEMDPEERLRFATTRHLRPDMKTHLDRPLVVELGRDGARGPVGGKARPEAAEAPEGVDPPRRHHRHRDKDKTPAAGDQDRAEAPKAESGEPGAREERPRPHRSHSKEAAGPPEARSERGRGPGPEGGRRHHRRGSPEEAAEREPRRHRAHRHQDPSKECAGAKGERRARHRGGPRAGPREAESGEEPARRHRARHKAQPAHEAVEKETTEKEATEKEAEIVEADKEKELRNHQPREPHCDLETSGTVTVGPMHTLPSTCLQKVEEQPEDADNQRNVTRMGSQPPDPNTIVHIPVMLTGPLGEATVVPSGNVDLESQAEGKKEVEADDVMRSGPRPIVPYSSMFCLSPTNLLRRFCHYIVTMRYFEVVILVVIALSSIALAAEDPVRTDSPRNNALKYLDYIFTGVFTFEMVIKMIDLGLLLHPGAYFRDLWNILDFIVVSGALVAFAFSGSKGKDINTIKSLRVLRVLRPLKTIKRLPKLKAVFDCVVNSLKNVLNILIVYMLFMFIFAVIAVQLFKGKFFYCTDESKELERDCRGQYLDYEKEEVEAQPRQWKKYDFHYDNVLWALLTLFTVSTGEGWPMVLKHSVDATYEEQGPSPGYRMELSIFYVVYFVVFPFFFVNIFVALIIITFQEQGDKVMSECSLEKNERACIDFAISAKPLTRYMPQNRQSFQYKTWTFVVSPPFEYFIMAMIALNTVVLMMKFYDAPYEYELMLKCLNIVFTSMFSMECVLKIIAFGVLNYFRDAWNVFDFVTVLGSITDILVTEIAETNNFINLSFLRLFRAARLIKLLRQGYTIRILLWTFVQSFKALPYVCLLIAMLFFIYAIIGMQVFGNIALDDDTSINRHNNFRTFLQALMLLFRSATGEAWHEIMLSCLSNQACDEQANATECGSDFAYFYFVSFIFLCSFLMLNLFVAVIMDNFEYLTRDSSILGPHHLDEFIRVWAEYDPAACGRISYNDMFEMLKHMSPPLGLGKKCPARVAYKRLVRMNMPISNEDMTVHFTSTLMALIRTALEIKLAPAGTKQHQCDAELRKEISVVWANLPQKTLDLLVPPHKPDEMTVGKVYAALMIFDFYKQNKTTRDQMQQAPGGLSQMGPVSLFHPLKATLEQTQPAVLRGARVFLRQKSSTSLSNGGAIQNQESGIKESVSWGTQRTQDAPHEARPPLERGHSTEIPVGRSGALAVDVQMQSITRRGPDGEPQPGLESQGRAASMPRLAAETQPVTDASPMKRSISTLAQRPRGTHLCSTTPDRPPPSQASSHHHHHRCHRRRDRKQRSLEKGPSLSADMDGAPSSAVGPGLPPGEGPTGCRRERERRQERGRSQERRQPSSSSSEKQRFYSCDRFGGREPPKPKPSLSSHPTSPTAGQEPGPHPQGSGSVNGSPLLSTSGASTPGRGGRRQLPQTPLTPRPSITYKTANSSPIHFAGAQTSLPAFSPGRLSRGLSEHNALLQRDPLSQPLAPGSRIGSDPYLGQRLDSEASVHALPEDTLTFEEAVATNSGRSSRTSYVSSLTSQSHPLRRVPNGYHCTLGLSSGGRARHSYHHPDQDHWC
# Sequence (Q02410 whole entry): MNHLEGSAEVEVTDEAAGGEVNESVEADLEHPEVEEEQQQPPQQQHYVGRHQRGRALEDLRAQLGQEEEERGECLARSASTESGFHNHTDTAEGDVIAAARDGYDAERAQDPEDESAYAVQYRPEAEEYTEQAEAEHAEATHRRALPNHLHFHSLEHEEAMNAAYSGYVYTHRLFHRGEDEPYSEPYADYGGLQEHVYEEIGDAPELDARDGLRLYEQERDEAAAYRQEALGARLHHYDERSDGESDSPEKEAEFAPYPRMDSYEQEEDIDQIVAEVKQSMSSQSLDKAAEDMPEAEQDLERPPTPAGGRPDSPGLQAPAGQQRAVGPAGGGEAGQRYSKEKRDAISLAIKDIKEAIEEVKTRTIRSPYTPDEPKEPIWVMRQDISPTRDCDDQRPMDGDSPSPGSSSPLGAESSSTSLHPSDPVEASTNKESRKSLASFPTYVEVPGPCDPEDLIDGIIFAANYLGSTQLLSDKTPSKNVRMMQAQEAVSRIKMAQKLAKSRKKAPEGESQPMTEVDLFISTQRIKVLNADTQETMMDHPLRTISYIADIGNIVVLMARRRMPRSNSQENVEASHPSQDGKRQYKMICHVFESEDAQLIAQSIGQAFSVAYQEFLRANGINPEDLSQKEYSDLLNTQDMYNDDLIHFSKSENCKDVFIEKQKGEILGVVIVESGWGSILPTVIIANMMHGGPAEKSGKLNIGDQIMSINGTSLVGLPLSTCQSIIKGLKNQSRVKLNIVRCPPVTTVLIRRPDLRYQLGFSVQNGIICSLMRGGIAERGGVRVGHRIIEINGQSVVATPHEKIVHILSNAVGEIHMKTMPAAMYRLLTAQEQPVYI
# Format: protein assay
Active and inactive are the calls of the source.
PROPERTY: IC50

>>> meas_value("C=Cc1ccc(C(=O)N2CCCC(CCC(=O)N3CCN(c4ccccn4)CC3)C2)cc1 (stereo not given)")
"8.01 µM (active)"
>>> meas_value("ClC(Cl)(c1nnnn1-c1ccccc1)c1nnnn1-c1ccccc1")
"4.38 µM (active)"
>>> meas_value("CCOc1cc(/C=C(/C#N)C(=O)Nc2ccc(OC)cc2)ccc1OCc1ccc(C(=O)O)cc1")
"13.1 µM (active)"
>>> meas_value("NS(=O)(=O)c1ccc(CCNC(=O)/C=C/c2ccc([N+](=O)[O-])cc2)cc1")
"9.65 µM (active)"
>>> meas_value("O=C(O)CCCNC(=O)/C=C/c1ccco1")
"17.1 µM (active)"

----------
# TARGET_OR_TEST_SYSTEM: Calpain-2 catalytic subunit (Sus scrofa)
# Sequence (P43367 whole entry): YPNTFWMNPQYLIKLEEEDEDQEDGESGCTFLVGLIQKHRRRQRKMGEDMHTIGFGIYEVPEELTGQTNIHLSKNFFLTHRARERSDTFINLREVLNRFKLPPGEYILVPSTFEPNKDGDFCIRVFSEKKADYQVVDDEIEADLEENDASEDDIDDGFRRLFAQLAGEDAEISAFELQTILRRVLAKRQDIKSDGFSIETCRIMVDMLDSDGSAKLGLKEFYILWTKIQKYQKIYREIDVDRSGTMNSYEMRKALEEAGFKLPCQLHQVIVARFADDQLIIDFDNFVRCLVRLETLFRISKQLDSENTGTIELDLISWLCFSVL
# PROTOCOL_DESCRIPTION: m-calpain protease blockers, concentration series – biochemical, fluorogenic peptide substrate, dose response (AID 1420)
# Format: functional
PROPERTY: IC50

>>> meas_value("COc1cc(OC)cc(C(=O)Nc2ccc3c(c2)COC3=O)c1")
"5.36 µM (not active)"
>>> meas_value("CCc1cccc(CC)c1NC(=O)c1cc(CN2C(=O)c3ccccc3C2=O)ccc1OC")
"3.81 µM (not active)"
>>> meas_value("Cn1nc(CC(=O)N2CCN(c3ccccc3)CC2)c2ccccc2c1=O")
"13.1 µM (not active)"
>>> meas_value("O=C(CCN1C(=O)/C(=C/c2ccc3c(c2)OCO3)SC1=S)Nc1ccccc1")
"24.8 µM (not active)"
>>> meas_value("CC(C)n1c(=S)[nH]c2scc(-c3cccs3)c2c1=O")
"18.2 µM (not active)"
>>> meas_value("COc1ccc(-n2c(=S)[nH]c3cc(C(=O)Nc4ccc(OC)c(OC)c4)ccc3c2=O)cc1")
"22.5 µM (not active)"
>>> meas_value("c1ccc(Oc2nc(Oc3ccccc3)nc(N3CCOCC3)n2)cc1")
"< 0.4 µM (not active)"
>>> meas_value("CC(C)c1ccc(Nc2c([N+](=O)[O-])c(=O)n(C)c3ccccc23)cc1")
"3.37 µM (not active)"
>>> meas_value("COc1cc([N+](=O)[O-])ccc1-c1ccc(/C=N/NC(=O)c2ccccc2O)o1")
"8.3 µM (not active)"
>>> meas_value("CC(C)OC(=O)CSc1nnc(COc2ccc([N+](=O)[O-])cc2)n1C")
"9.11 µM (not active)"
>>> meas_value("Cc1ccc(C(=O)NNC(=O)c2ccc3ncccc3c2)cc1")
"9.29 µM (not active)"

----------
Measured EC50, listed per entry for reference.
# System: Streptococcus
# PROTOCOL_DESCRIPTION: GAS UMAA2166 growth inhibition – luminescence, BacTiterGlo, counter-screen for streptokinase expression inhibitor project, dose response (AID 1915);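 also: potency for reduction of bacterial viability or growth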
# Assay type: functional, organism-based
The source made the active and inactive calls.
PROPERTY: EC50

>>> meas_value("CC(C)C1OC2c3cccc4cccc(c34)C2N1c1ccccc1 (stereo unspecified)")
"> 150 µM (not active)"
>>> meas_value("C/C(=N/NC(=O)CNC(=O)c1cccnc1)c1cccc([N+](=O)[O-])c1")
"> 150 µM (not active)"
>>> meas_value("CC(C)c1ccc(N2C(=O)/C(=C/N(C)C)SC2=S)cc1")
"57 µM (active)"
>>> meas_value("CC(C)(C)N/N=C1\\CC(c2ccccc2)Oc2ccccc21 (stereo unspecified)")
"> 150 µM (not active)"
>>> meas_value("c1ccc(CCNc2nc(-c3ccccn3)nc3ccccc23)cc1")
"2.33 µM (active)"
>>> meas_value("COc1ccc(C(=O)O)cc1NC(=S)NC(=O)c1ccc(-c2ccc(Cl)cc2)o1")
"> 150 µM (not active)"
